Assay: yeast display, Sf9 membrane polyspecificity reagent, FACS + sequencing; frameworks hold sequencing errors
quantityName: polyreactivity (PSR sort gate)

- biosequence: "QVQLVDSGGGLDQAGGSLRLSCAASGRIFGLYAMVWYRTAPGKEKELVAHIDVSDGSTYYADSVKGRFTISLDTAKNTVYLQMNRLKPEDTAVYYCNAEDSSRWYDWYLHDYWGQGTQVTVSS"
  polyreactivity (PSR sort gate): "high polyreactivity"
- biosequence: "QLQLVESGGGLVQAGCSLRLICAASGFTFYRNAMGWYRQAPGKEREFVAAISSSGGGTYYADSVKGRFTISRDNAKNTVYLQMNSLKPDDTAVYYCAAKYPQKTTVNSYGNSFYYWGQGTQVTVSS"
  polyreactivity (PSR sort gate): "high polyreactivity"
- biosequence: "QLQLVESGGGLVPAGGSLRLSCASSGSIFKTYAMGWSRQAPGKDRELVAAIRGSGGSTYYADSVKGRFTIARDYAKNTVYLQMKSLKPEDTAFYYCARVGTKYRTNFFNGNDDWGQGTQVTVSS"
  polyreactivity (PSR sort gate): "low polyreactivity"
- biosequence: "QVQLVESGGGLVQAGGSLRLSCAAAGNIFSPYAMGWYIQAPGKERELVAAISYSGGSTYYADSVKGRFTISRDIAKNTFYLQMNSLKPEDTAVYYCAVVYSYYLAVLGYWDYDYWGQGTQVTVSS"
  polyreactivity (PSR sort gate): "low polyreactivity"
- biosequence: "QVQLVESGGGLVQAGGSLRLSCAASGSTFGGNAKGWYRQAPGKERELGAAISSSGGSTYYADSVKGRFTLSRDNAKNTVYLQMNSLKPEDTAVYYCAALYHWTYDYWGQGTQVTVSS"
  polyreactivity (PSR sort gate): "low polyreactivity"
- biosequence: "QVQHVETGGGLVQAGGSLRLSCAASGFLFYFNDKGWYRQAPGKERELVASITSGASTNYADSVKGRFTISRDNAKNTVYLQMNSLKPEDTAVYYCAAAYFWLYPYVEYDYWGQGTQVTVSS"
  polyreactivity (PSR sort gate): "low polyreactivity"
- biosequence: "QVQLVESGGGLVQAGGSLRLSCAASGRTFGYYAMGWYRPAPGKERELVAAISSGGGTYYADSVKGRFTISRDNAKNTVYLQRNSLNPEASAVYYIAATGWLYWGQFYYWGQGTLVTVSS"
  polyreactivity (PSR sort gate): "low polyreactivity"
- biosequence: "QVQLVESGGGLVQAGGSLRLSCAASGRTFFRNAMGWYRQAPGKERELVAGISRSGGSTYYADSVKGRFTISRDNAKNTVYLQMNSLKPEDTAVYYCAASFRFYRTGYYYWGQGTQVTVSS"
  polyreactivity (PSR sort gate): "high polyreactivity"

Ask: Determine its reported polyreactivity (PSR sort gate): QVQLVESGGGLVQAGGSLRLSCAASGRIFWYYAMGWSRQAPGKERELVATISYGGGNTYYADSVKGRFTISRDNAKNTVYLQMNSLKPEDTAVYYCARVPYAYLPYKPFQQYSYDYWGQGTQVTVSS
Reply: high polyreactivity

Ask: Determine its reported polyreactivity (PSR sort gate): QVQLVESGGGLVQAGGTLRLSCAPSGRIFGIYDMGWYRQAPGKERELVADIDVSDGSTYYADSVKGRFTISRDNAKNTVYLQMNSMKPEDTAVYYCNAEDSSRWYDWYLHDYWGQGTQVTVSS
Reply: high polyreactivity

Ask: Determine its reported polyreactivity (PSR sort gate): QVQLVESGGGLVQAGGSLRLSCADSGSIFRIYAMGWYSQAPGKERELVAAITGRGGSTYYADSVKGRFTISRDNAKNTVYLQMNSLKPEDTAVYYCAAEERYAYRYDYWGQGTQVTVSS
Reply: high polyreactivity

Hey, just so you know, these numbers are from the nanobody polyreactivity screen of Harvey et al. (2022).
